- test-target: Human immunodeficiency virus type 1 reverse transcriptase (Human immunodeficiency virus 1, UniProt Q72547)
- assay-explanation: Tested for inhibition against HIV-1 RT (used (poly)rC-(oligo)dG as the template)
pIC50: −log10 of the molar value.

molecular-string: CCc1cc(/C=C\c2nc3ccccc3o2)c(=O)[nH]c1C
pIC50: 5.52

molecular-string: CCc1cc(CCc2ccccn2)c(O)nc1C
pIC50: 3.59

molecular-string: CCc1cc(CCc2nc3c(F)cccc3o2)c(O)nc1C
pIC50: 7.82

molecular-string: Cc1nc(O)c(CCc2nc3ccccc3o2)cc1N(C)C
pIC50: 5.73

molecular-string: CCc1cc(CCc2nc3ccc(F)cc3o2)c(O)nc1C
pIC50: 6.35

molecular-string: CCc1cc(CCc2nc3c(C)ccc(C)c3o2)c(=O)[nH]c1C
pIC50: 7.55

---

- assay-explanation: Plasma equilibrium dissociation constant was determined
- Assay type: functional, cell-free, Homo sapiens
pKd: −log10 of the molar value.
property-label: pKd

molecular-string: CCc1cc(CCc2nc3c(F)cccc3o2)c(O)nc1C
property-label: pKd
endpoint-value: 4.62
--
molecular-string: CCc1cc(CCc2nc3ccccc3o2)c(O)nc1C
property-label: pKd
endpoint-value: 4.67
--
molecular-string: CCc1cc(CCc2nc3c(Cl)cccc3o2)c(O)nc1C
property-label: pKd
endpoint-value: 4.75
--
molecular-string: CCc1cc(CCc2nc3c(Cl)ccc(Cl)c3o2)c(O)nc1C
property-label: pKd
endpoint-value: 6.12
--
molecular-string: CCc1cc(CCc2nc3cccc(Cl)c3o2)c(O)nc1C
property-label: pKd
endpoint-value: 5.38
--
molecular-string: CCc1cc(CCc2nc3cccc(F)c3o2)c(O)nc1C
property-label: pKd
endpoint-value: 5.09
--
molecular-string: CCc1cc(CCc2nc3c(F)ccc(F)c3o2)c(O)nc1C
property-label: pKd
endpoint-value: 4.74
--
molecular-string: CCc1cc(CCc2nc3c(C)ccc(C)c3o2)c(O)nc1C
property-label: pKd
endpoint-value: 5.92
--
molecular-string: CCc1cc(CCc2nc3c(C)cccc3o2)c(O)nc1C
property-label: pKd
endpoint-value: 5.61

---

- test-target: Human immunodeficiency virus type 1 reverse transcriptase (Human immunodeficiency virus 1)
- assay-explanation: Tested for inhibition against HIV-1 RT (used (poly)rC-(oligo)dG as the template)
pIC50: −log10 of the molar value.

molecular-string: CCc1cc(CCc2ccc3ccccc3n2)c(O)nc1C
pIC50: 5.61

molecular-string: CCc1cc(CCc2nc3cccc(F)c3o2)c(=S)[nH]c1C
pIC50: 7.37

molecular-string: CCc1cc(CCc2nc3cccc(C)c3o2)c(=O)[nH]c1C
pIC50: 7.40

molecular-string: CCc1cc(CCc2nc3c(F)ccc(F)c3o2)c(=S)[nH]c1C
pIC50: 7.82

molecular-string: CCc1cc(CNc2nc3ccccc3o2)c(O)nc1C
pIC50: 5.90

molecular-string: CCc1cc(OCc2nc3c(Cl)ccc(Cl)c3o2)c(=O)[nH]c1C
pIC50: 7.06

molecular-string: CCCc1cc(CCc2nc3ccccc3o2)c(O)nc1C
pIC50: 7.08

molecular-string: Cc1nc(O)c(CCc2nc3ccccc3o2)cc1CO
pIC50: 5.47

molecular-string: COCc1cc(CCc2nc3ccccc3o2)c(=O)[nH]c1C
pIC50: 5.68

molecular-string: CCc1cc(CCc2nc3ccccc3o2)c(S)nc1C
pIC50: 7.62

molecular-string: Cc1cc(CCc2nc3ccccc3o2)c(O)nc1C
pIC50: 6.77

molecular-string: CCc1cc(NCc2nc3c(Cl)ccc(Cl)c3o2)c(O)nc1C
pIC50: 7.70

molecular-string: CCc1cc(CCc2nc3ccc(C)cc3o2)c(=O)[nH]c1C
pIC50: 6.76

molecular-string: CCc1cc(CCc2cc3cnccc3o2)c(O)nc1C
pIC50: 4.87

molecular-string: CCc1cc(CCc2cc3ccccc3o2)c(O)nc1C
pIC50: 6.89

molecular-string: CCc1cc(CCC(=O)Nc2ccccc2O)c(=O)[nH]c1C
pIC50: 5.27

molecular-string: CCc1cc(/C=C/c2nc3ccccc3o2)c(O)nc1C
pIC50: 5.23

molecular-string: CCc1cc(CCCc2nc3ccccc3o2)c(O)nc1C
pIC50: 4.80

molecular-string: CCc1cc(S(=O)(=O)Cc2nc3c(Cl)ccc(Cl)c3o2)c(O)nc1C
pIC50: 6.69

molecular-string: CCc1cc(SCc2nc3c(Cl)ccc(Cl)c3o2)c(=O)[nH]c1C
pIC50: 7.96

molecular-string: CCc1cc(OCc2nc3ccccc3o2)c(=O)[nH]c1C
pIC50: 6.72

molecular-string: CCc1cc(CCc2nc3c(F)cccc3o2)c(=S)[nH]c1C
pIC50: 7.89

molecular-string: Cc1[nH]c(=O)c(CCc2nc3ccccc3o2)cc1C(N)=O
pIC50: 4.38

molecular-string: Cc1[nH]c(=O)c(CCc2nc3ccccc3o2)cc1C(C)C
pIC50: 7.32

molecular-string: Cc1nc(O)c(CCc2nc3ccccc3o2)cc1C#N
pIC50: 6.51

---

- assay-explanation: Half life was determined
- Assay type: ADME
- applied-conditions: 0.1 N HCl in 90% ethanol

compound: CCc1cc(CCc2nc3ccccc3o2)c(O)nc1C
half-life, min: 218
//
compound: CCc1cc(OCc2nc3ccccc3o2)c(=O)[nH]c1C
half-life, min: 12
//
compound: CCc1cc(NCc2nc3c(Cl)ccc(Cl)c3o2)c(O)nc1C [L-697661]
half-life, min: 17
//
compound: CCc1cc(OCc2nc3c(Cl)ccc(Cl)c3o2)c(=O)[nH]c1C
half-life, min: 11
//
compound: CCc1cc(SCc2nc3c(Cl)ccc(Cl)c3o2)c(=O)[nH]c1C
half-life, min: 34
//
compound: CCc1cc(NCc2nc3ccccc3o2)c(O)nc1C
half-life, min: 35

---

- test-target: UniProt:Q72547
- assay-explanation: Cell culture inhibitor concentration required to inhibit the spread of HIV-1 strain III B infection in MT-4 human T-lymphoid cells
- Type: functional, cell-based
Listed here: items and their measured IC95.
property-label: IC95 (nM)

molecular-string: CCc1cc(CCc2nc3c(F)cccc3o2)c(S)nc1C
test-target: UniProt:Q72547
endpoint-value: 100
--
molecular-string: CCc1cc(NCc2nc3ccccc3o2)c(O)nc1C
test-target: UniProt:Q72547
endpoint-value: 800
--
molecular-string: CCc1cc(NCc2nc3c(Cl)ccc(Cl)c3o2)c(O)nc1C
test-target: UniProt:Q72547
endpoint-value: 100
--
molecular-string: CCc1cc(CCc2nc3c(F)ccc(F)c3o2)c(S)nc1C
test-target: UniProt:Q72547
endpoint-value: 200
--
molecular-string: CCc1cc(CCc2nc3cccc(Cl)c3o2)c(O)nc1C
test-target: UniProt:Q72547
endpoint-value: 100
--
molecular-string: CCc1cc(CCc2nc3ccccc3o2)c(S)nc1C
test-target: UniProt:Q72547
endpoint-value: 200
--
molecular-string: CCc1cc(CCc2nc3c(C)ccc(C)c3o2)c(S)nc1C
test-target: UniProt:Q72547
endpoint-value: 200
--
molecular-string: CCc1cc(CCc2nc3c(C)ccc(C)c3o2)c(O)nc1C
test-target: UniProt:Q72547
endpoint-value: 300
--
molecular-string: CCc1cc(CCc2nc3c(Cl)cccc3o2)c(O)nc1C
test-target: UniProt:Q72547
endpoint-value: 100
--
molecular-string: CCc1cc(CCc2nc3c(Cl)ccc(Cl)c3o2)c(O)nc1C
test-target: UniProt:Q72547
endpoint-value: 50
--
molecular-string: CCc1cc(CCc2nc3cccc(F)c3o2)c(S)nc1C
test-target: UniProt:Q72547
endpoint-value: 200
--
molecular-string: CCc1cc(CCc2nc3c(F)cccc3o2)c(O)nc1C
test-target: UniProt:Q72547
endpoint-value: 50
--
molecular-string: CCc1cc(CCc2nc3c(Cl)ccc(Cl)c3o2)c(S)nc1C
test-target: UniProt:Q72547
endpoint-value: 100
--
molecular-string: CCc1cc(CCc2nc3c(C)cccc3o2)c(O)nc1C
test-target: UniProt:Q72547
endpoint-value: 100
--
molecular-string: CCc1cc(CCc2nc3cccc(Cl)c3o2)c(S)nc1C
test-target: UniProt:Q72547
endpoint-value: 200
--
molecular-string: CCc1cc(CCc2nc3ccccc3o2)c(O)nc1C
test-target: UniProt:Q72547
endpoint-value: 100
--
molecular-string: CCc1cc(SCc2nc3c(Cl)ccc(Cl)c3o2)c(O)nc1C
test-target: UniProt:Q72547
endpoint-value: 50
--
molecular-string: CCc1cc(CNc2nc3ccccc3o2)c(O)nc1C
test-target: UniProt:Q72547
endpoint-value: 10000
--
molecular-string: CCc1cc(CCc2nc3c(F)ccc(F)c3o2)c(O)nc1C
test-target: UniProt:Q72547
endpoint-value: 50
--
molecular-string: CCc1cc(OCc2nc3c(Cl)ccc(Cl)c3o2)c(O)nc1C
test-target: UniProt:Q72547
endpoint-value: 200
